Cited source for all entries: patent US12448382B2

# tgt: human recombinant JAK2 protein (Homo sapiens)
# Construct: purchased Carna Biosciences 08-045
# Sequence (O60674 826-1132 limits assumed): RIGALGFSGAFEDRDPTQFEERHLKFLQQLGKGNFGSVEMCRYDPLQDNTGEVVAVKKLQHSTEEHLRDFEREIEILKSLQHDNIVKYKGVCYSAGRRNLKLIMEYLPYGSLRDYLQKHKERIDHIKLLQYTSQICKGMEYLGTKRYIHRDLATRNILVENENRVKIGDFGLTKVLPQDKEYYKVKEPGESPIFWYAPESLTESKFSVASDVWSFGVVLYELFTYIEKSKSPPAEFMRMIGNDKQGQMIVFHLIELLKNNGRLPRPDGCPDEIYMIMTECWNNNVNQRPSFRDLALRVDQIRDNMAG
# protocol-summary: JAK2 Inhibition Assay (HTRF kinase assay)
# Format: biochemical
# run-parameters: human recombinant JAK2, 2.5 μM ATP substrate solution
observed-property: IC50 (nM)
Write the number in nM without appending the unit.

Query block: GET /values?readout=IC50&item= CC(=O)N1C[C@@]2(C)CN(c3nc(Nc4cnn(C)c4)ncc3Cl)C[C@@]2(C)C1
Result block: 8.8

Query block: Can you look up the measured IC50 of COc1cnc(Nc2cnn(C)c2)nc1N1C[C@]2(C)CN(C(=O)CC#N)C[C@]2(C)C1 for me?
Result block: 8.1

Query block: # get_value(readout='IC50', item= Cn1cc(Nc2ncc(Cl)c(N3C[C@]4(C)CN(C(=O)[C@@H]5CC5(F)F)C[C@]4(C)C3)n2)cn1 )
Result block: 1.4

Query block: Need IC50, item Cn1cc(Nc2ncc(Cl)c(N3C[C@H]4CN(C(=O)CC#N)C[C@H]4C3)n2)cn1
Result block: 10

Query block: // query IC50 value for entry Cn1cc(Nc2nccc(N3C[C@]4(C)CN(C(=O)C(F)(F)F)C[C@]4(C)C3)n2)cn1
Result block: 126

###

# tgt: human recombinant JAK2 protein (Homo sapiens)
# Construct: purchased Carna Biosciences 08-045
# protocol-summary: JAK2 Inhibition Assay (HTRF kinase assay)
# Format: biochemical
# run-parameters: human recombinant JAK2, 2.5 μM ATP substrate solution
Binary label based on IC50 with cut-off 9 nM: below gives rule met, not below gives rule not met.

Query block: API: query returns whether the compound falls strictly under 9 nM in IC50. Query: Cc1cnc(Nc2cnn(C)c2)nc1N1C[C@]2(C)CN(C(=O)CC(F)(F)F)C[C@]2(C)C1
Result block: rule met

Query block: Take the compound Cn1cc(Nc2ncc(Cl)c(N3C[C@]4(C)CN(C(=O)C5COC5)C[C@]4(C)C3)n2)cn1 and say whether its IC50 is less than 9 nM.
Result block: rule not met

Query block: Input Cn1cc(Nc2ncc(Cl)c(N3C[C@]4(C)CN(Cc5ccn(C)n5)C[C@]4(C)C3)n2)cn1 ; condition: IC50 strictly below 9 nM. Does it hold?
Result block: rule not met

Query block: Input Cn1cc(Nc2ncc(Cl)c(N3C[C@]4(C)CN(C(=O)CC(F)(F)F)C[C@]4(C)C3)n2)cn1 ; condition: IC50 strictly below 9 nM. Does it hold?
Result block: rule met

Query block: Please let me know if Cc1cnc(Nc2cnn(C)c2)nc1N1C[C@@]2(C)CN(S(C)(=O)=O)C[C@@]2(C)C1 shows IC50 below 9 nM.
Result block: rule met

Query block: # strict comparison: is reported IC50 < 9 nM? input = C[C@@]12CN(C(=O)[C@@H]3CC3(F)F)C[C@]1(C)CN(c1nc(Nc3cn[nH]c3)ncc1Cl)C2
Result block: rule met

###

# tgt: human recombinant JAK2 protein (Homo sapiens)
# Construct: purchased Carna Biosciences 08-045
# protocol-summary: JAK2 Inhibition Assay (HTRF kinase assay)
# Format: biochemical
# run-parameters: human recombinant JAK2, 2.5 μM ATP substrate solution
observed-property: log10 of IC50 (log10 of the value in nM)
// do not treat as linear: log10 of IC50, unit nM

Query block: Consider the compound shown here: Cn1cc(Nc2ncc(Cl)c(N3C[C@]4(C)CN(C(=O)C(C)(C)O)C[C@]4(C)C3)n2)cn1 What is its recorded log10 of IC50?
Result block: 1.30

Query block: State the recorded log10 of IC50 for this entry: Cn1cc(Nc2ncc(Cl)c(N3C[C@]4(C)CN(CC5CC5)C[C@]4(C)C3)n2)cn1
Result block: 2.68

Query block: Entry under review: Cn1cc(Nc2nccc(N3C[C@]4(C)CN(C(=O)C5CC5(F)F)C[C@]4(C)C3)n2)cn1 (stereo partly drawn) . Reported log10 of IC50?
Result block: 1.91

Query block: Look up log10 of IC50 for this compound: Cc1nnc(N2C[C@@]3(C)CN(c4nc(Nc5cnn(C)c5)ncc4Cl)C[C@@]3(C)C2)o1
Result block: 1.11

Query block: Name the recorded log10 of IC50 for Cn1ccc(Nc2ncc(Cl)c(N3C[C@]4(C)CN(C(=O)C5CC5)C[C@]4(C)C3)n2)n1 .
Result block: 1.53

Query block: Suppose we examine the compound C[C@]12CN(C(=O)CC#N)C[C@H]1CN(c1nc(Nc3cn[nH]c3)ncc1Cl)C2 ; what log10 of IC50 value has been reported?
Result block: -0.15

Query block: Dear colleague, I am looking for the recorded log10 of IC50 of the following compound: Cn1cc(Nc2ncc(Cl)c(N3C[C@]4(C)CN(c5ccno5)C[C@]4(C)C3)n2)cn1
Result block: -0.52

Query block: Find the recorded log10 of IC50 belonging to Cn1cc(Nc2nccc(N3C[C@@H]4CN(Cc5ccno5)C[C@]4(C)C3)n2)cn1 (relative stereo) and report it.
Result block: 2.19

Query block: Item C[C@@]12CN(C(=O)C3CC3)C[C@]1(C)CN(c1nc(Nc3cnn(CC#N)c3)ncc1Cl)C2 has what recorded log10 of IC50?
Result block: 0.79

Query block: Would you kindly share the measured log10 of IC50 for Cn1cc(Nc2ncc(Cl)c(N3C[C@]4(C)CN(C(=O)C(C)(C)C#N)C[C@]4(C)C3)n2)cn1 ?
Result block: 1.28

Query block: Please report the recorded log10 of IC50 for CCS(=O)(=O)N1C[C@]2(C)CN(c3nc(Nc4cnn(C)c4)ncc3Cl)C[C@]2(C)C1 .
Result block: 0.23

Query block: log10 of IC50 for C[C@@]12CN(C(=O)C3CC3)C[C@]1(C)CN(c1ccnc(Nc3ccc(C(=O)O)cc3)n1)C2 ?
Result block: 2.68

Query block: Need log10 of IC50, item Cn1cc(Nc2ncc(Cl)c(N3C[C@@H]4CN(C(=O)CC(F)(F)F)C[C@]4(C)C3)n2)cn1 (racemic)
Result block: 1.49

Query block: Can you look up the measured log10 of IC50 of Cn1cc(Nc2ncc(Cl)c(N3C[C@@H]4CN(C(=O)c5ccno5)C[C@]4(C)C3)n2)cn1 (racemic) for me?
Result block: 0.52

Query block: Sample Cn1cc(Nc2nccc(N3C[C@]4(C)CN(C(=O)C5CC5)C[C@]4(C)C3)n2)cn1 — what was its log10 of IC50?
Result block: 2.50

Query block: GET /values?readout=log10 of IC50&item= Cn1cc(Nc2ncc(Cl)c(N3C[C@H]4CN(C(=O)CC#N)C[C@@]4(C)C3)n2)cn1
Result block: 0.65

Query block: # get_value(readout='log10 of IC50', item= Cc1noc(CN2C[C@@]3(C)CN(c4nc(Nc5cnn(C)c5)ncc4Cl)C[C@@]3(C)C2)n1 )
Result block: 1.15

Query block: Entry Cn1cc(Nc2ncc(Cl)c(N3C[C@]4(C)CN(CCO)C[C@]4(C)C3)n2)cn1 has what log10 of IC50?
Result block: 1.85

Query block: What value of log10 of IC50 has been reported for the following compound? Cn1cc(Nc2ncc(Cl)c(N3C[C@]4(C)CN(C(=O)C5(C#N)CC5)C[C@]4(C)C3)n2)cn1
Result block: 1.30

Query block: Bench note: what log10 of IC50 did Cn1cc(Nc2ncc(Cl)c(N3C[C@]4(C)CN(CC(F)(F)F)C[C@]4(C)C3)n2)cn1 show?
Result block: 0.08

Query block: log10 of IC50 lookup needed for C[C@@H](O)Cn1cc(Nc2ncc(Cl)c(N3C[C@]4(C)CN(C(=O)C5CC5)C[C@]4(C)C3)n2)cn1 , thanks.
Result block: 0.51

Query block: Suppose we examine the compound Cn1cc(Nc2ncc(Cl)c(N3C[C@H]4CN(C(=O)[C@@H]5CC5(F)F)C[C@@]4(C)C3)n2)cn1 ; what log10 of IC50 value has been reported?
Result block: 0.41

Query block: Which log10 of IC50 is reported for this compound? Cn1cc(Nc2ncc(Cl)c(N3C[C@@H]4CN(C(=O)CC#N)C[C@]4(C)C3)n2)cn1 (racemic) [Compound 63]
Result block: 0.08

Query block: Recorded log10 of IC50 for Cc1cnc(Nc2cnn(C)c2)nc1N1C[C@@H]2CN(C(=O)[C@@H]3CC3(F)F)C[C@]2(C)C1 (racemic) , please?
Result block: 0.65

Query block: Record request: log10 of IC50 value, item Cn1cc(Nc2ncc(F)c(N3C[C@]4(C)CN(CC(F)F)C[C@]4(C)C3)n2)cn1
Result block: 1.83

Query block: Could you share which log10 of IC50 value was measured for Cn1cc(Nc2ncc(Cl)c(N3C[C@]4(C)CN(Cc5cn[nH]c5)C[C@]4(C)C3)n2)cn1 ?
Result block: 1.60

Query block: Param item = Cn1cc(Nc2nccc(N3C[C@]4(C)CN(CCC#N)C[C@]4(C)C3)n2)cn1 ; retrieve measured log10 of IC50.
Result block: 2.14

Query block: Endpoint output: log10 of IC50 of Cn1cc(Nc2ncc(Cl)c(N3C[C@]4(C)CN(C(=O)c5ccccn5)C[C@]4(C)C3)n2)cn1 . Value?
Result block: 1.71

Query block: Would you mind telling me what log10 of IC50 value was observed for CCNC(=O)c1ccc(Nc2ncc(F)c(N3C[C@H]4CN(C(=O)C5CC5(F)F)C[C@H]4C3)n2)cc1 (stereo partly drawn) ?
Result block: 1.58

Query block: For Cn1cc(Nc2ncc(Cl)c(N3C[C@]4(C)CN(C(=O)CC(F)F)C[C@]4(C)C3)n2)cn1 , what is its reported log10 of IC50?
Result block: 0.26
